target_of_assay: UniProt Q95V25
protocol_details: In vitro assay 1: C. elegans Slo-1a, action at a recombinant C. elegans CHO cell line (membrane potential measurement)
// classify: if (EC50 < 30 nM) MET else NOT MET

[[record]]
chem_smiles = "CC(C)c1c(C(=O)N[C@H]2CCc3ccccc32)cnc2c(-c3cccc(C(F)(F)F)c3)c(Cl)nn12"
label = "NOT MET"

[[record]]
chem_smiles = "Cc1nn2c(C(C)C)c(C(=O)N[C@H]3CCc4ccccc43)cnc2c1-c1cc(Cl)c(Cl)c(Cl)c1"
label = "MET"

[[record]]
chem_smiles = "Cc1nn2c(C)c(C(=O)N[C@H]3CCCc4ccccc43)cnc2c1-c1cc(Cl)cc(Cl)c1"
label = "NOT MET"


Asked: Dear colleague, could you confirm whether EC50 of CC(=O)Nc1cc(-c2c(C)nn3c(C4CC4)c(C(=O)N[C@H]4CCOc5ccccc54)cnc23)ccn1 falls below 30 nM? Thanks.
Given back: NOT MET

---

target_of_assay: C. elegans Slo-1a (Caenorhabditis elegans)
Sequence (Q95V25 whole entry): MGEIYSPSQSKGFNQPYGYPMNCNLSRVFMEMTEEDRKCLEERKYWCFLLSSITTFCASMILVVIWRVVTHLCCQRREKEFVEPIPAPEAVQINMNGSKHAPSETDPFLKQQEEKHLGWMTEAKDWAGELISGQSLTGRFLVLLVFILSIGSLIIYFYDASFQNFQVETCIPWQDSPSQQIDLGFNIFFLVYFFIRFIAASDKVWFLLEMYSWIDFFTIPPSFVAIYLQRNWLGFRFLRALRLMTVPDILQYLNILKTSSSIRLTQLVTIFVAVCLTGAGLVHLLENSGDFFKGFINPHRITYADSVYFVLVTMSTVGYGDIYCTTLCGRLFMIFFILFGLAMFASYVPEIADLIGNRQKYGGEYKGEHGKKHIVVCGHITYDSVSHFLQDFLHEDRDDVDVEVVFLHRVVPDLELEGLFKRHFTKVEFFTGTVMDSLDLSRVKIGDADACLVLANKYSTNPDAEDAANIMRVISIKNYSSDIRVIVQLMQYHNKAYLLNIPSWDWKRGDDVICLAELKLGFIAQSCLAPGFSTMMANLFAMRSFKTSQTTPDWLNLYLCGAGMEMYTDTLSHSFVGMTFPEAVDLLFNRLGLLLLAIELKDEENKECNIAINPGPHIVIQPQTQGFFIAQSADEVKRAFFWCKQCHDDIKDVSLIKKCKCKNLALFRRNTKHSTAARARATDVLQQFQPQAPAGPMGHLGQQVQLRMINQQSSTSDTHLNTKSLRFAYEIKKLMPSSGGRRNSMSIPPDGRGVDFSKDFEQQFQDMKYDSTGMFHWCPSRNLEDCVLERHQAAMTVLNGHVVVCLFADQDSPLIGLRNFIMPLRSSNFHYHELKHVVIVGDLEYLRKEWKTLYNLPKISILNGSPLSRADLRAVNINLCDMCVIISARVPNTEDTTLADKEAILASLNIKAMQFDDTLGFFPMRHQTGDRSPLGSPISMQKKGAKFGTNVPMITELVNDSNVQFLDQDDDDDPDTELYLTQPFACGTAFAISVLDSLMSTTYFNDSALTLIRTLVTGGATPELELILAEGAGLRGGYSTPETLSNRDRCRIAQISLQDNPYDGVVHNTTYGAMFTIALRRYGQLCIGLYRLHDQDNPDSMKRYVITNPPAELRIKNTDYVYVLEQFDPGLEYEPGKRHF
protocol_details: In vitro assay 1: C. elegans Slo-1a, action at a recombinant C. elegans CHO cell line (membrane potential measurement)
recorded_endpoint: EC50 (nM)
Field format: number, assumed nM, no unit text.

Some compounds with known EC50 results, for comparison:
[[record]]
chem_smiles = "Cc1nn2c(C(C)C)c(C(=O)N[C@H]3CCOc4ccccc43)cnc2c1-c1c(F)cc(F)cc1F"
recorded_endpoint = "EC50"
numeric_result = 2

[[record]]
chem_smiles = "Cc1nn2c(C(C)C)c(C(=O)N[C@H]3CCc4ccccc43)cnc2c1-c1cccc(Cl)c1Cl"
recorded_endpoint = "EC50"
numeric_result = 3.16


Asked: Need EC50 of Cc1nn2c(C(C)C)c(C(=O)N[C@H]3CCc4ccccc43)cnc2c1-c1cccc(OC(C)C)c1 , thanks.
Given back: 10

---

target_of_assay: C. elegans Slo-1a (Caenorhabditis elegans)
protocol_details: In vitro assay 1: C. elegans Slo-1a, action at a recombinant C. elegans CHO cell line (membrane potential measurement)
recorded_endpoint: EC50 (nM)
Provide the reading as a plain figure in nM.

Solved cases below.
[[record]]
chem_smiles = "Cc1nn2c(N3CCOCC3)c(C(=O)N[C@H]3CCOc4ccccc43)cnc2c1-c1cc(Cl)cc(Cl)c1"
target_of_assay = "C. elegans Slo-1a (Caenorhabditis elegans)"
numeric_result = 5.01

[[record]]
chem_smiles = "Cc1nn2c(CC(C)C)c(C(=O)N[C@H]3CCOc4ccccc43)cnc2c1-c1c(F)cccc1Cl"
target_of_assay = "C. elegans Slo-1a (Caenorhabditis elegans)"
numeric_result = 12.6


# ---- query compound ----
Asked: # get_value(readout='EC50', item= Cc1nn2c(C(C)C)c(C(=O)N[C@H]3CCOc4ccccc43)cnc2c1-c1cc(F)c(Cl)c(F)c1 )
Given back: 25.1

---

protocol_details: log P by HPLC on reversed phase columns (Method L0; [a] acidic, [b] neutral range)
As shown below, each of these molecules has a reported chromatographic logP value.
Give your answer as a number; write no unit.

[[record]]
chem_smiles = "COc1cc(-c2c(C(F)(F)F)nn3c(C(C)C)c(C(=O)N[C@H]4CCc5ccccc54)cnc23)ccc1F"
recorded_endpoint = "chromatographic logP"
numeric_result = 4.89

[[record]]
chem_smiles = "CCOc1cccc(-c2c(C)nn3c(C(C)C)c(C(=O)N[C@H]4CCc5ccccc54)cnc23)c1"
recorded_endpoint = "chromatographic logP"
numeric_result = 4.94

[[record]]
chem_smiles = "CC(C)c1c(C(=O)N[C@H]2CCCc3ccccc32)cnc2c(-c3c(F)cccc3F)c(C(F)(F)F)nn12"
recorded_endpoint = "chromatographic logP"
numeric_result = 5.06

[[record]]
chem_smiles = "Cc1nn2c(C(C)C)c(C(=O)N[C@H]3CCc4ccccc43)cnc2c1-c1cccc(N(C)C)c1"
recorded_endpoint = "chromatographic logP"
numeric_result = 3.9

[[record]]
chem_smiles = "Cc1nn2c(C(C)C)c(C(=O)N[C@H]3CCOc4ccccc43)cnc2c1-c1cccc(Br)c1"
recorded_endpoint = "chromatographic logP"
numeric_result = 5.02


Now let's try a different one.
Asked: chromatographic logP for Cc1nn2c(Cc3ccc(F)cc3)c(C(=O)N[C@H]3CCc4ccccc43)cnc2c1-c1c(F)cccc1Cl ?
Given back: 4.92
